# Protocol Summary: Toxicity liver stage against HepG2, at 10uM
# Type: cell-based
# Set-up: test concentration 10 uM, cell line HepG2-A16-CD81EGFP
# Assay Setup: human, HepG2-A16-CD81EGFP cells; read-out: INHIBITION
Value Kind: cytotoxicity at 10 µM (%)

INSERT INTO measurements (compound, value) VALUES
  ('CC(C)n1[nH]c(=O)c2c1NC(=O)CC2c1ccc2ncccc2c1 (configuration not stated)', 9.76),
  ('CC(C)c1noc(CCCC(=O)N2CCN(Cc3ccncc3)CC2)n1', -6.59),
  ('O=C(NC(C(=O)Nc1cc[nH]n1)c1ccccc1)C1CCC1 (configuration not stated)', -17.5),
  ('COc1ccc(CN2CCOC3(CCCN(C(C)=O)C3)C2)cc1 (configuration not stated)', 3.88),
  ('CN(C)c1ncccc1C(=O)N1CCCN(c2cccnn2)CC1', 9.41),
  ('COCCN1CCC2(CC1)CC(N1CCOCC1)c1ccc(C)cc12 (configuration not stated)', -106),
  ('c1cncc(CN2Cc3nccn3CC(Cn3cncn3)C2)c1 (configuration not stated)', -136),
  ('Cc1cnn(CCNCC(=O)Nc2ccc(Br)cn2)c1', 1.9),
  ('CC(C)n1c(C(=O)N2CCCC2)nc2c1CCN(c1ncccn1)C2', -6.72),
  ('O=C(Cc1cn2ccccc2n1)N1CCCC(n2ccnc2)C1 (configuration not stated)', -22.4),
  ('COc1cccc2sc(N3CC(OC(C)=O)C3)nc12', -6.67),
  ('CCCn1nc(-c2nc(COC)no2)ccc1=O', -11.6);
